Test system: HIV-1 (Strain RF-II)
test: Antiviral activity against HIV-1 in HeLa-T4 cells (Table 4)
Assay type: cell-based
conditions-used: Human immunodeficiency virus 1, HeLaT4, HIV-1
reported-endpoint: pEC50
// pEC50: -log10(molar conc.)

-- ask Which pEC50 value is on record for [N-]=[N+]=N[C@H]1C[C@H](n2ccc(=O)[nH]c2=O)O[C@@H]1CO [CS-87, 3'-azido-2',3'-dideoxyuridine] ?
-- reply 5.91

-- ask Which pEC50 value is on record for Cc1cn([C@H]2C[C@H](N=[N+]=[N-])[C@@H](CO)O2)c(=O)[nH]c1=O [AZT, 3'-azido-3'-deoxythymidine, reference compound] ?
-- reply 6.47

-- ask Which pEC50 value is on record for Nc1ccn([C@H]2CC[C@@H](CO)O2)c(=O)n1 [d2C (ddC), 2',3'-dideoxycytidine, reference compound] ?
-- reply 6.32
